Target: T1, AFACP, ACP of the FAS from Anabaena
T1 chain: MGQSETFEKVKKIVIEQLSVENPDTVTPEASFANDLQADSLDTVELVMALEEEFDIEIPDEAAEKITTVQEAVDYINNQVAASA
property.label: kcat
Answer format reminder: number followed by unit.

protein	kcat
APPT, Sfp-like phosphopantetheinyl transferase (PPTase) from Anabaena sp. PCC7120 (protein) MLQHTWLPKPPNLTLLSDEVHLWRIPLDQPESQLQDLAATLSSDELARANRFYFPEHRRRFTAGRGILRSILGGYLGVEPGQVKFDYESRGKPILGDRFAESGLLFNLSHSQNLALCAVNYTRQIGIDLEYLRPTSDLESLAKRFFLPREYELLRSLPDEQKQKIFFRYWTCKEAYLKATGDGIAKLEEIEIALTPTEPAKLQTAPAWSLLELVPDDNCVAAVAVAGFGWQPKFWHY	0.195 s⁻¹
MPPT, Sfp-like phosphopantetheinyl transferase (PPTase) from Microcystis aeruginosa NIES843 (protein) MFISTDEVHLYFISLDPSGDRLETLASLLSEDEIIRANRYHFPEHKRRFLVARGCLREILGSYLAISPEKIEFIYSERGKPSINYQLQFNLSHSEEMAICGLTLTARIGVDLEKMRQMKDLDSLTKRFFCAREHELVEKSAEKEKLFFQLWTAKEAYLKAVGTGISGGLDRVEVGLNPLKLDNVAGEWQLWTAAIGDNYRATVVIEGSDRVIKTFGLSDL	0.14 s⁻¹
Sfp, phosphopantetheinyl transferase from Bacillus subtilis (protein) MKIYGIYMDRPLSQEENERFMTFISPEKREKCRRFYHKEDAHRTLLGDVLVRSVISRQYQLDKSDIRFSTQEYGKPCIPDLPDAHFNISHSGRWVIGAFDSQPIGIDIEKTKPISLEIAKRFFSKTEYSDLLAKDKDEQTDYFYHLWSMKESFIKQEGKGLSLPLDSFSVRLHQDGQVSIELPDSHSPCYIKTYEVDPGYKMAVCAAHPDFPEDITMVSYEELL	0.163 s⁻¹

Please list kcat recorded for the protein SPPT, Sfp-like phosphopantetheinyl transferase (PPTase) from Synechocystis sp. PCC6803 (protein) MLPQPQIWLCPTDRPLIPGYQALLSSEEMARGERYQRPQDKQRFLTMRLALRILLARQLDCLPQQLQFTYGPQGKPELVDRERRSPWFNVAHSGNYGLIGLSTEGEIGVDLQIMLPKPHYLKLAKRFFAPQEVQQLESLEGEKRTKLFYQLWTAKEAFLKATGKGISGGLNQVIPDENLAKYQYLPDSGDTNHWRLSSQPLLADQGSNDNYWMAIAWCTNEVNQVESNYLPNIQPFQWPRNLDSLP
0.245 s⁻¹
